Tested on: K4 kissing-loop RNA reporter;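 also: bound reporter read as fluorescence of individual clusters on recovered sequencing chips by microscopy, with normalized cluster intensities fitted with a binding model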
Experiment summary: apparent KD of K4 kissing-loop reporter; higher = weaker reporter binding
Condition notes: Eterna round: R107; input ligand: none
Binary call on apparent KD of K4 kissing-loop reporter: rule met from 200 nM upward, rule not met beneath that.

Some solved cases for reference:
- UGAUAGGACAGAAGGAGCGGGAGUGAUGUUCCCAAAAGGAUAAGGUGUCAAAAGACACCCUCCCAGGUAGGUCGCUGUCCUAUCU: rule met
- UAUGAAGGUGGAGGAUAUUGAUUGAGCCUUGGUCAGGAGUGAUGUUCCGGGAAGCCUUGGGUUCAUCGAGAAGGCCAAGGAUAGU [#09 K4 FMN B Same State]: rule met
- GGAUAGGAUAGAGGAUAUGGGUUAGGCAAGAAUAACUUGUCUAGUAAAUCCAUGAGGAGUGAUGUUCCAGAAGGCUGUCCUAUCG [MatMod 4 - Jieux - Exclusion - FMN B]: rule not met
- GCAUCCUAGUCGGCCGCCACUGACAUGAGUGAUGUUCAUGUUCGUCAGUGAUGUUGACGUUGUUACAGGACCGGGACUAGGAUGC [KL-SSTryp-B8 Brourdwalk4 #Double KL]: rule not met
- AGACUACCACACUGUCAAUAGACAGUGAACUAGGAUAUGCUGAUAAGCAGAAGGAGUGAUGUUCCCAGGUAGUCAAUAAAAUAAU [FmnAX 13 C66]: rule met

Below: the item to evaluate.
(Q) Assess whether reported apparent KD of K4 kissing-loop reporter for AGGAUAUAGUGAUGUUAUAUAAGAAGAAAACGAGGACCGGUACGGCCGCCACUCGAAGCGGCUACUAAGAGGGAAAGAAGAGGAA [ExTryptoA.A] sits at 200 nM or higher.
(A) rule met
